Target: Tubulin (Homo sapiens) (UniProt P68371+Q9H4B7+P0DPH7+P68366+Q13509+Q71U36+P04350+Q3ZCM7+P07437+P68363+Q9BQE3+Q6PEY2+Q13885+Q9BVA1+Q9BUF5)
Experiment: Displacement of [3H]colchicine from tubulin (unknown origin) at 5 uM after 10 mins by scintillation counting analysis
Format: protein-complex assay
Quick reference: inhibition of the listed items.
Expressed in %, but write only the number.

Reference set, count: 5
COc1ccc2c(C(=O)c3cc(F)c(F)c(F)c3)c(-c3ccc(OC)c(O)c3)[nH]c2c1    26
COc1ccc(-c2[nH]c3c(O)c(OC)ccc3c2C(=O)c2cc(OC)c(OC)c(OC)c2)cc1    85
COc1ccc2c(C(=O)c3cc(C(F)(F)F)cc(C(F)(F)F)c3)c(-c3ccc(OC)c(O)c3)[nH]c2c1    26
COc1ccc2c(C(=O)c3cccc([N+](=O)[O-])c3)c(-c3ccc(OC)c(O)c3)[nH]c2c1    21
COc1ccc(-c2[nH]c3c(OC)c(OC)ccc3c2C(=O)c2cc(OC)c(OC)c(OC)c2)cc1O    67

Switching to the query record.
Recorded inhibition for COc1ccc2c(C(=O)c3cccc(OC(F)(F)F)c3)c(-c3ccc(OC)c(O)c3)[nH]c2c1 , please?
19
